- Assay Summary: self-splicing fitness, log relative to wild type (ln ratio); higher = more splicing; Tetrahymena group I intron in knt gene, E. coli kanamycin selection, DiMSum; sequences stand for … in CUCUCU…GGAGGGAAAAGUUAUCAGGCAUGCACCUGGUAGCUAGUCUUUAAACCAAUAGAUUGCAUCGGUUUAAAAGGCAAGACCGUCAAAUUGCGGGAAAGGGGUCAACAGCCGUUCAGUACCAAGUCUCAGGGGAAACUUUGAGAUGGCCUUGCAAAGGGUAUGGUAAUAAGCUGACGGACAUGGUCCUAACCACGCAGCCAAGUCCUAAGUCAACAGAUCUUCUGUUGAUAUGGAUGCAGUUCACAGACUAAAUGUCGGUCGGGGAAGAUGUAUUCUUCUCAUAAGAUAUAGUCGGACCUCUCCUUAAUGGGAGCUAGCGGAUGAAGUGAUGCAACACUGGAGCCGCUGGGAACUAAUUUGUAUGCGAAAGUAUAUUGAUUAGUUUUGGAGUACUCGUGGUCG;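 also: selection with 25 µg/mL kanamycin versus none on LB agar overnight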
- Assay Conditions: 37 °C
Output schema: class label derived from self-splicing fitness (ln). Mapping: bottom (below -2), middle (-2 to below -0.7), top (-0.7 or more)

Category of CAUAAGCAAUAUUACGGGUU :
bottom

Category of ACAAAGCAAUAUUACGCUAA :
middle

Category of AUACAGCAAUAUUACGUCCA :
top

Category of AACCAGCAAUAUUACGUCAA :
middle

Category of AUUCAGCAAUAUUACGGGUG :
top

Category of ACGUAGCAAUAUUACGGUCG :
top

Category of CCUUAGCAAUAUUACGACAC :
bottom

Category of CGGCAGCAAUAUUACGGUCC :
top

Category of GGUCAGCAAUAUUACGACCA :
top

Category of CCGUAGCAAUAUUACGUUUC :
bottom

====

- Assay Summary: self-splicing fitness, log relative to wild type (ln ratio); higher = more splicing; Tetrahymena group I intron in knt gene, E. coli kanamycin selection, DiMSum; sequences stand for … in CUCUCU…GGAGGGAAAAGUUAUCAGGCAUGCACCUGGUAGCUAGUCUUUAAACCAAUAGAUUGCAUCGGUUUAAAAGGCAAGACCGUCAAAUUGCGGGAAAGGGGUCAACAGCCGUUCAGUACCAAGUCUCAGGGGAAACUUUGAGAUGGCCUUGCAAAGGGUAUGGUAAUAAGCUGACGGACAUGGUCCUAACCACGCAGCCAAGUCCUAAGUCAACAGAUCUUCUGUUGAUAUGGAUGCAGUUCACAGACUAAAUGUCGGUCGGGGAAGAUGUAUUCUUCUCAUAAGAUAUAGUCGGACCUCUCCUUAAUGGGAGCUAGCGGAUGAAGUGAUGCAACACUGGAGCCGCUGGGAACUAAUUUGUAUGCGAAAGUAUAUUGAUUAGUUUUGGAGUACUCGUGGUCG
- Assay Conditions: 37 °C
self-splicing fitness (ln) values, listed per item
Just the number, please, no unit attached.

Hello, please tell me recorded self-splicing fitness (ln) for this one: CUGGAGCAAUAUUACGGAGG
-2.18

Hello, please tell me recorded self-splicing fitness (ln) for this one: GAUGAGCAAUAUUACGUUUU
-2.72

Hello, please tell me recorded self-splicing fitness (ln) for this one: UACCAGCAAUAUUACGAAGA
-0.519

Hello, please tell me recorded self-splicing fitness (ln) for this one: CCAAAGCAAUAUUACGCCCC
-0.985

Hello, please tell me recorded self-splicing fitness (ln) for this one: CAACAGCAAUAUUACGUUGG
-1.5

Hello, please tell me recorded self-splicing fitness (ln) for this one: CUUGAGCAAUAUUACGGUCG
-2.3
